# System: HEK-293T
# protocol-summary: Multiplex assay against HEK293T
# Assay type: toxicity, cell-based
# stated-conditions: human, 24 h, 1 µM, compound concentration 1 uM, replicate 1
measured-metric: Population Fragmented Nuclei (%)
Expressed in %, but write only the number.

# count of solved cases: 2
- chemical-structure: "O=c1nc2[nH]c3ccccc3nc-2c(=O)[nH]1"
  Population Fragmented Nuclei (%): 10
- chemical-structure: "Cc1sc2c(c1C)C(c1ccc(Cl)cc1)=N[C@H](CC(=O)OC(C)(C)C)c1nnc(C)n1-2"
  Population Fragmented Nuclei (%): 10

Continue with the molecule presented below.
Form: molecule = S=C(NCCCc1c[nH]cn1)NCCCN(Cc1ccc(Cl)c(Cl)c1)c1ccc(Br)cn1 ; Population Fragmented Nuclei (%) = 10

* * *

# Test system: HEK-293T
# protocol-summary: Multiplex assay against HEK293T
# Assay type: toxicity, cell-based
# stated-conditions: human, 48 h, 10 µM, compound concentration 10 uM, replicate 1
Non-standard residues stand in square brackets, D forms with d. Residues, ends and D or L forms follow the SMILES beside them.
measured-metric: Population Fragmented Nuclei (%)
Report only the number, with the unit % understood.

Before answering, review these 3 worked examples.
- compound: "COc1cc(OC2CCN(C(C)=O)CC2)ccc1C(=O)N1CCC(N2C(=O)OCc3ccccc32)CC1"
  tgt: "HEK-293T"
  Population Fragmented Nuclei (%): 13
- compound: "CC(C)C[C@@H]1NC(=O)[C@@H](C(C)C)NC(=O)[C@@H]2CCCN2C(=O)[C@@H](CC(=O)O)NC(=O)[C@@H](Cc2c[nH]c3ccccc23)NC1=O [BQ-123] (cyclo(L[dW][dD]P[dV]))"
  tgt: "HEK-293T"
  Population Fragmented Nuclei (%): 16
- compound: "C[C@@H]1CC(=O)Nc2cccc(-c3ccc4c(c3)c(-c3cnn(C)c3)nn4C)c2N1"
  tgt: "HEK-293T"
  Population Fragmented Nuclei (%): 13

What the record says about CN1CCC(C(=O)c2cccc(NC(=O)c3c(F)cc(F)cc3F)n2)CC1 : Population Fragmented Nuclei (%) is 13

// Population Fragmented Nuclei (%) value for Nc1nc(-c2ccco2)c2cnn(Cc3ccccc3F)c2n1 : 16

Entry CC(C)C[C@H](CO)Nc1nc(S[C@@H](C)c2ccccc2)nc2nc(N)sc12 — recorded Population Fragmented Nuclei (%) = 16

* * *

# Tested on: Fibroblast
# protocol-summary: Multiplex assay against human fibroblast
# Assay type: toxicity, cell-based
# stated-conditions: 12 h, 10 µM, compound concentration 10 uM, replicate 2
measured-metric: Population Healthy Nuclei (%)
A number alone suffices; assume %.

// worked examples, Population Healthy Nuclei (%) included
- compound: "CN1CCN2c3ccccc3Cc3ccccc3C2C1.Cl (centres undefined) [MIANSERIN HYDROCHLORIDE]"
  unit-label: "%"
  Population Healthy Nuclei (%): 48
- compound: "O=C(O)CCC/C=C\\CC1C(O)CC(O)C1/C=C/C(O)COc1cccc(Cl)c1 (centres undefined) [CLOPROSTENOL]"
  unit-label: "%"
  Population Healthy Nuclei (%): 43
- compound: "CN1C[C@H](C(=O)N[C@]2(C)O[C@@]3(O)[C@@H]4CCCN4C(=O)[C@H](Cc4ccccc4)N3C2=O)C[C@@H]2c3cccc4[nH]cc(c34)C[C@H]21.CS(=O)(=O)O [DIHYDROERGOTAMINE MESYLATE]"
  unit-label: "%"
  Population Healthy Nuclei (%): 45

Lookup result for COc1cc(Nc2ncc3c(n2)-c2ccc(Cl)cc2C(c2c(F)cccc2OC)=NC3)ccc1C(=O)O [ALISERTIB] ; measured Population Healthy Nuclei (%): 30
